These measurements were taken from BigSolDB 2.1.

CONDITION_DESCRIPTION: in toluene, 325.95 K
PARAMETER_MEASURED: solubility (mole fraction)
Answers are plain numbers.

**Query** Could you share which solubility (mole fraction) value was measured for Nc1ccccc1C(=O)O ?
**Result** 0.026

----------
CONDITION_DESCRIPTION: in 1,4-dioxane, 304.15 K
PARAMETER_MEASURED: solubility (mole fraction)
One number for each entry.

**Query** Please look up its solubility (mole fraction): O=C(O)c1ccc(O)cc1
**Result** 0.088

----------
CONDITION_DESCRIPTION: in toluene, 319.65 K
PARAMETER_MEASURED: solubility (mole fraction)
Answers are plain numbers.

**Query** Fill in the blank: the reported solubility (mole fraction) of NC(=O)N1c2ccccc2C=Cc2ccccc21 is ____.
**Result** 0.003
